Test: in vitro
Conditions: rat, plasma
READOUT: half-life

Completed entries (count: 3):
COMPOUND: Cc1cc(O)cc(C)c1C[C@H](N)C(=O)N[C@H](C)C(=O)NCC(=O)N(C)[C@@H](Cc1ccccc1)C(=O)N1CCC[C@H]1C(=O)N[C@@H](CC(C)C)C(=O)N[C@@H](Cc1c[nH]c2ccccc12)C(=O)NCc1cc(C(F)(F)F)cc(C(F)(F)F)c1
half-life: > 24 h
--
COMPOUND: Cc1cc(O)cc(C)c1C[C@H](N)C(=O)N[C@H](C)C(=O)NCC(=O)N[C@@H](Cc1ccc(F)cc1)C(=O)N1CCC[C@H]1C(=O)N[C@@H](CC(C)C)C(=O)N[C@@H](Cc1c[nH]c2ccccc12)C(=O)NCc1cc(C(F)(F)F)cc(C(F)(F)F)c1
half-life: > 24 h
--
COMPOUND: CSCC[C@H](NC(=O)[C@H](Cc1ccccc1)NC(=O)CNC(=O)[C@@H](C)NC(=O)[C@@H](N)Cc1c(C)cc(O)cc1C)C(=O)N1CCC[C@H]1C(=O)N[C@@H](CC(C)C)C(=O)N[C@@H](Cc1c[nH]c2ccccc12)C(=O)NCc1cc(C(F)(F)F)cc(C(F)(F)F)c1 [TY032, reference compound]
half-life: > 6 h

Turning now to a further compound:
Name the reported half-life value associated with the compound CC(C)C[C@H](NC(=O)[C@@H]1CCCN1C(=O)[C@H](Cc1ccc(F)cc1)NC(=O)CNC(=O)[C@@H](C)NC(=O)[C@@H](N)Cc1ccc(O)cc1)C(=O)N[C@@H](Cc1c[nH]c2ccccc12)C(=O)NCc1cc(C(F)(F)F)cc(C(F)(F)F)c1 < 2 h
